Ref: PubChem BioAssay AID425

In this section, each of the molecules is paired with its reported inhibition.
Target: Dual specificity protein phosphatase 6 (Rattus norvegicus) (UniProt Q64346)
Sequence (Q64346 whole entry, looked up): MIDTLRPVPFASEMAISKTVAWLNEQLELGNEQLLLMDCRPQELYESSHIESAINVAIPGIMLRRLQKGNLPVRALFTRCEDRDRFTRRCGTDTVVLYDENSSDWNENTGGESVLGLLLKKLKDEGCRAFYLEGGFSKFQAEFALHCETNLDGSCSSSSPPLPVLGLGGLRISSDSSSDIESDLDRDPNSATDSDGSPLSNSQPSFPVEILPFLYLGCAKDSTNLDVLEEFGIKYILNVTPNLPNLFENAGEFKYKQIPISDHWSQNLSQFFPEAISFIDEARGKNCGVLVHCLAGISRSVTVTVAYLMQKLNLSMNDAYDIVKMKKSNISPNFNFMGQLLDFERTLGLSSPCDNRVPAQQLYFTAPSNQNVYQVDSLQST
Test: MKP-3 phosphatase inhibitors, primary screen, biochemical, rat enzyme, in vitro (AID 425);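 note: plate controls were vehicle for no effect and reference inhibitor for full effect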
Conditions: recombinant MKP-3 phosphatase activity, fluorescence; at 20 µM; hits give high values
Out of some 110,000 compounds screened, about 190 (0.17%) were called active. The list comes from a sample in which actives are over-represented; it also holds close analogues and randomly drawn compounds. Results with a measured potency or affinity are listed apart.
reportedProperty: inhibition (%)

>>> endpointvalue("COc1ccc(C2NC(=S)NC(C)=C2C(=O)Nc2ccccc2)c(OC)c1 (centres undefined)")
1.7
>>> endpointvalue("COc1ccc2c(c1)c(=O)c(Br)c(C)n2Cc1ccccc1")
-17.6
>>> endpointvalue("Cc1ccc(S(=O)(=O)N2CCN(Cc3ccccc3[N+](=O)[O-])CC2)cc1")
3.5
>>> endpointvalue("CCOc1ccc(N(CC(=O)NCc2ccc(Cl)cc2)S(C)(=O)=O)cc1")
-2.6

----------
Biological target: Dual specificity protein phosphatase 6 (Rattus norvegicus) (UniProt Q64346)
Assay: MKP-3 phosphatase inhibitors, primary screen, biochemical, rat enzyme, in vitro (AID 425);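 note: plate controls were vehicle for no effect and reference inhibitor for full effect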
Details: recombinant MKP-3 phosphatase activity, fluorescence; at 20 µM
About 190 (0.17%) of roughly 110,000 compounds were called active. No stated cut-off is given here; in the data, active means inhibition above about 50%; inactive means the rest. For the sample, actives were picked, then their nearest neighbours and some compounds at random. Measured potencies and affinities stand elsewhere.
Possible outcomes: active, inactive

>>> assignedclass("CCOC(=O)c1c(C)[nH]c(/C=C(/C#N)C(N)=NCc2ccccc2)c1O")
"inactive"
>>> assignedclass("CCOC(=O)c1ccc(NC(=O)COc2ccc(Cl)cc2C)cc1")
"inactive"
>>> assignedclass("CC1(C)OC(=O)C(=Cc2ccc(-c3ccc(Cl)cc3Cl)o2)C(=O)O1")
"inactive"
>>> assignedclass("O=C1c2cccnc2-c2ncccc21")
"inactive"
>>> assignedclass("O=C1C(=Cc2ccc(I)o2)C(=O)c2ccccc21")
"inactive"
>>> assignedclass("OCCCc1nc2ccccc2n1Cc1ccc2ccccc2c1")
"inactive"
>>> assignedclass("Cc1c(C#N)c2nc3ccccc3n2c(=O)/c1=C\\c1c(O)n(-c2ccc(Br)cc2)[nH]c1=O")
"inactive"
>>> assignedclass("O=C(NC1(O)C(=O)c2ccccc2C1=O)c1ccccc1")
"inactive"
>>> assignedclass("CCc1c(C)c2ccc(OCC(C)=O)c(C)c2oc1=O")
"inactive"
>>> assignedclass("Cn1c(/C=C/c2ccc(Br)cc2)nc2ccccc2c1=O")
"inactive"
>>> assignedclass("Cc1ccc(C2CC(C(F)(F)F)n3nc(C(=O)N(Cc4ccccc4)Cc4ccccc4)cc3N2)cc1 (stereo not given)")
"inactive"
>>> assignedclass("CCSc1nc(-c2cccs2)nc2c1c(=O)n(C)c(=O)n2C")
"inactive"
>>> assignedclass("CC(Cc1ccccc1)N=C(N)/C(C#N)=C\\c1[nH]c2ccccc2c1O (stereo not given)")
"active"
>>> assignedclass("Cc1nc(C)n(C)c(=O)c1-c1ccccc1")
"inactive"
>>> assignedclass("CCOc1cccc(=O)c2c(C)oc(C)c12")
"inactive"

----------
Molecular target: Dual specificity protein phosphatase 6 (Rattus norvegicus)
Experiment: MKP-3 phosphatase inhibitors, primary screen, biochemical, rat enzyme, in vitro (AID 425);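 note: plate controls were vehicle for no effect and reference inhibitor for full effect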
Conditions: recombinant MKP-3 phosphatase activity, fluorescence; at 20 µM; hits give high values
Screen size: about 110,000 compounds; about 190 (0.17%) were called active. The entries come from a sample that favours actives as a whole. Entries with a potency or affinity are not part of this list.
reportedProperty: inhibition (%)

>>> endpointvalue("CCn1cc(C(=O)NC2CCCCCC2)c(=O)c2cc(S(=O)(=O)N3CCCCC3)ccc21")
3.2
>>> endpointvalue("CCN1CCN(CCCNC(=O)Cn2cc3c(n2)CCCC3)CC1")
-12
>>> endpointvalue("CC(=O)c1ccc(NC(=O)c2ccc(-c3ccc(Br)cc3)o2)cc1")
10.6
>>> endpointvalue("CCn1cc(C(=O)NC2CCCC2)c(=O)c2cc(S(=O)(=O)N3CCOCC3)ccc21")
3.9
>>> endpointvalue("O=C(O)c1ccc(CN2CCOCC2)cc1")
1.1
>>> endpointvalue("Cc1ccccc1C(=O)Nc1cccc(C(=O)Nc2ccccc2Cl)c1")
0.2
>>> endpointvalue("Cc1cccc(-c2nnc(SCc3nc4ccccc4[nH]3)n2Cc2ccco2)c1")
-6.8
>>> endpointvalue("O=C(Nc1ccccc1Cl)c1cccc(NC(=O)C(F)(F)F)c1")
98.8
>>> endpointvalue("c1ccc2c(-n3cnnn3)cccc2c1")
-8.8
>>> endpointvalue("CC1CCN(CCCNC(=O)c2cn(C)c3ccc(S(=O)(=O)N4CCCC4)cc3c2=O)CC1")
-3
>>> endpointvalue("Cc1ccc(C)n1-c1ccc(OCC(=O)O)cc1")
25.7
>>> endpointvalue("CCOC(=O)C(C(=O)OCC)c1cc(Br)c2noc3c2c1C(=O)c1ccccc1-3")
23.6
>>> endpointvalue("CCn1cc(C(=O)NC2CCC(C)CC2)c(=O)c2cc(S(=O)(=O)N3CCCCC3)ccc21 (stereo unspecified)")
56.1
>>> endpointvalue("Cc1ccc(C)c(C(=O)COC(=O)c2ccc(Br)o2)c1")
-15.9
>>> endpointvalue("Cc1ccc(/C=N/n2cnnc2)cc1[N+](=O)[O-]")
-0.6
>>> endpointvalue("COc1cc(/C=C2\\SC(=S)N(c3ccc(C)cc3C)C2=O)cc(Br)c1O")
-2.7

----------
Target: Dual specificity protein phosphatase 6 (Rattus norvegicus) (UniProt Q64346)
Assay: MKP-3 phosphatase inhibitors, primary screen, biochemical, rat enzyme, in vitro (AID 425);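 note: plate controls were vehicle for no effect and reference inhibitor for full effect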
Conditions: recombinant MKP-3 phosphatase activity, fluorescence; at 20 µM
About 190 (0.17%) of roughly 110,000 compounds were called active. Rule as the data show it: active = inhibition above about 50%; inactive = the rest. The entries come from a sample that favours actives as a whole. Entries with a potency or affinity are not part of this list.
Possible outcomes: active, inactive

>>> assignedclass("O=C1CCCC2=C1C(c1ccc(Cl)cc1)Nc1ccccc1N2 (stereo not given)")
"inactive"
>>> assignedclass("C=CCN1C(=O)/C(=C\\c2ccc([N+](=O)[O-])o2)C(=O)NC1=S")
"active"
>>> assignedclass("C/C(=N\\NS(=O)(=O)c1ccc(C)cc1)C(C)(C)CC(=O)O")
"inactive"
>>> assignedclass("CN(C)CCCNC(=O)c1ccc(CN(c2ccccc2)S(C)(=O)=O)cc1")
"inactive"
>>> assignedclass("O=C(O)c1cc(-c2ccc(/C=N/Nc3ccc([N+](=O)[O-])cn3)o2)ccc1Cl")
"inactive"
>>> assignedclass("O=C(O)c1ccc(Cl)c(-c2ccc(/C=N\\Nc3ccc([N+](=O)[O-])cn3)o2)c1")
"inactive"
>>> assignedclass("Cc1ccc(-c2csc3nnc(SCC(=O)Nc4nsc(-c5ccccc5)n4)n23)cc1")
"inactive"
>>> assignedclass("O=C(Cn1c(NCCCO)nc2ccccc21)c1ccco1")
"inactive"
>>> assignedclass("Cc1ccc(OCCOc2ccc(C=O)cc2)cc1C")
"inactive"
>>> assignedclass("CCOc1ccc(-n2c(SCC(N)=O)nc3c([nH]c4ccccc43)c2=O)cc1")
"inactive"

----------
Target: Dual specificity protein phosphatase 6 (Rattus norvegicus) (UniProt Q64346)
Experiment: MKP-3 phosphatase inhibitors, primary screen, biochemical, rat enzyme, in vitro (AID 425);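 note: plate controls were vehicle for no effect and reference inhibitor for full effect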
Settings: recombinant MKP-3 phosphatase activity, fluorescence; at 20 µM; hits give high values
Screen size: about 110,000 compounds; about 190 (0.17%) were called active. Only a selection was taken, and actives are over-represented in it overall. Potency and affinity values are given separately.
reportedProperty: inhibition (%)

>>> endpointvalue("COc1ccc(C(=O)NCCn2ccc3ccccc32)cc1OC")
-4.9
>>> endpointvalue("CCOC(=O)c1sc2nc(SCC(=O)NCc3ccco3)n(Cc3ccccc3)c(=O)c2c1C")
-3.7
>>> endpointvalue("CCOC(=O)c1sc2ncn(C(C)C(=O)OC)c(=O)c2c1C (stereo unspecified)")
-14.1
>>> endpointvalue("O=c1[nH]c2c(n(C3CCCCC3)c1=O)CCC2")
-11.2
>>> endpointvalue("CCC1=NN2C(=N)/C(=C/c3ccc(OC)c(OC)c3)C(=O)N=C2S1")
-3.5
>>> endpointvalue("O=[N+]([O-])c1ccc(C2Nc3c(I)cccc3C3C=CCC32)cc1 (stereo unspecified)")
4.4
>>> endpointvalue("Cc1ccc(C)n1-c1cc(C(=O)O)cc(C(=O)O)c1")
32.5
>>> endpointvalue("CCCOc1ccc(C(=O)Nc2ccc(C)cc2[N+](=O)[O-])cc1")
2.7
>>> endpointvalue("Cc1cc(Cl)c2cc(C(=O)O)ccc2n1")
3.5
>>> endpointvalue("O=C(CSc1ccc(C(=O)O)cc1)Nc1ccccc1")
0.1
>>> endpointvalue("Cc1ccc(C)n1-c1cc(C(=O)O)ccc1Cl")
101
>>> endpointvalue("Cc1nc(SCC(=O)Nc2ccc(F)cc2)c2oc3ccccc3c2n1")
-2.1
>>> endpointvalue("O=[N+]([O-])c1ccc(C2Nc3c(cccc3[N+](=O)[O-])C3C=CCC32)cc1 (stereo unspecified)")
5.4
>>> endpointvalue("COc1cccc2c(Cl)cc(C)nc12")
-2.4
>>> endpointvalue("COc1cccc2c(Cl)c(CC=C(Cl)Cl)c(C)nc12")
74.2
>>> endpointvalue("Cc1ccc(C)n1-c1cc(C(=O)O)ccc1O")
32.6
